Test system: CP265
Protocol summary: qHTS profiling for inhibitors of Plasmodium falciparum proliferation (AID 504749); also: potency is read from the fitted curve at half-maximal effect; nearly all actives have a fitted effect of over 60% in size
Test context: P. falciparum in erythrocytes, SYBR Green DNA, 72 h; series mostly up to 28.7 µM
Records with an inconclusive call do not appear. Active and inactive are the calls of the source. Calls follow the shape of the dose curve; as a rule, active = well fitted inhibition curve with a large enough effect; inconclusive = small, poorly fitted or top-dose-only effect; inactive = flat fitted curve, though single readings scatter.
Readout type: Potency

Task: Recorded Potency for CCC(C(=O)O)C1CCC(C)C(C(C)C(O)C(C)C(=O)C(CC)C2OC3(C=CC(O)[C@@]4(CC[C@](C)(C5CC[C@@](O)(CC)C(C)O5)O4)O3)C(C)CC2C)O1 (some centres undefined) , please?
Output: 1260 nM (active)

Task: Also CCCCCCCCCCCC(CC1OC(=O)C1CCCCCC)OC(=O)C(CC(C)C)NC=O (centres undefined) , if possible.
Output: 631 nM (active)

Task: Also COc1cccc2c1C(=O)c1c(O)c3c(c(O)c1C2=O)C[C@@](O)(C(=O)CO)C[C@@H]3O[C@H]1C[C@H](N)[C@H](OC2CCCCO2)[C@H](C)O1 (some centres undefined) , if possible.
Output: 8910 nM (active)
